Tested on: COLO 205
Test method notes: NCI tumour cell line growth inhibition, 48 h
The source made the active and inactive calls. No stated cut-off is given here; in the data, active = GI50 up to about 1.1 µM and inactive = higher. Where a SMILES comes first, the peptide text is derived from it. The star is where a group is joined. Cbz = O=C(OCc1ccccc1)*; Boc = CC(C)(C)OC(=O)*; Bn = c1ccc(C*)cc1
Reported metric: GI50

Given the entry "O=C(N/N=C(COc1ccc(Cl)cc1)\N=C\c1ccncc1)c1ccncc1" , report its measured GI50.
> 100 µM (inactive)

What value of GI50 has been reported for the following compound? Nc1nc(=O)[nH]c2c1cnn2C1CCCCO1 (stereo not drawn)
> 100 µM (inactive)

Report GI50 for CC1(C(O)c2ccccc2)CN(C(C)(C)C)C(=O)/C1=C\Sc1ccccc1 (stereo not drawn) please.
20.9 µM (inactive)

Quick one: GI50 for CC12C(=CC(=O)CC1SCCS(=O)(=O)O)C(C#N)=C(N)N2c1ccc(Cl)c(Cl)c1 (stereo not drawn) ?
> 100 µM (inactive)

// returns reported GI50 for input "NS(=O)(=O)c1ccc(CNc2nc(-c3cccs3)nc3ccc(I)cc23)cc1"
16.1 µM (inactive)

Consider the compound shown here: "Cc1cc2c(O)c(c1)CN(Cc1ccccc1)Cc1cc(C)cc(c1O)CN(Cc1ccccc1)Cc1cc(C)cc(c1O)CN(Cc1ccccc1)C2" What is its recorded GI50?
> 100 µM (inactive)

What value of GI50 has been recorded for this entry: CC(C)(C)OC(=O)NC(Cc1ccc(OCc2ccccc2)cc1)C(=O)NC(CCCCNC(=O)OCc1ccccc1)C(=O)O (stereo not drawn) (Boc-Tyr(Bn)-Lys(Cbz)-OH; configuration not given here)
29.5 µM (inactive)

Would you mind telling me what GI50 value was observed for "Cc1ccc(-c2nc(N/N=C/C=C/c3ccccc3)c3ccccc3n2)cc1" ?
57.3 µM (inactive)

* * *

Could you please report measured GI50 for the items listed next?
Test system: SK-MEL-28
Test method notes: NCI tumour cell line growth inhibition, 48 h
The source made the active and inactive calls. Cut-off read from the data, not from the text of the source: active = GI50 up to about 1.1 µM and inactive = higher.

I am curious: what GI50 value has been reported for "O=c1c2ccccc2c2nc3ccccc3nc2n1C1CCCCC1" ?
> 100 µM (inactive)

Return reported GI50; argument: "Nc1cc2c3c(cccc3c1)NC2=O"
> 100 µM (inactive)

Query: GI50; subject: Cc1ccc(-c2c3nc(c(-c4ccc(C)cc4)c4ccc([nH]4)c(-c4ccc(OCC5COC(C)(C)O5)cc4)c4nc(c(-c5ccc(C)cc5)c5ccc2[nH]5)C=C4)C=C3)cc1 (stereo not given)
> 31.6 µM (inactive)

# input compound: Cc1cc(Cl)ccc1NC(=O)C1C(=O)N(c2ccc(Cl)cc2C)C(=O)/C1=N\N (stereo not given) ; wanted: its GI50
52.5 µM (inactive)

What value of GI50 has been recorded for this entry: "Oc1ccc2c(c1)c1c(n2CCN2CCOCC2)-c2ccccc2CC1"
18.6 µM (inactive)

What GI50 value was documented for this compound, O/N=C1/C2CC3CC1(c1ccccc1)CC(/C3=N/O)/C2=N\O (stereo not given) ?
> 100 µM (inactive)

Given the compound "C/C(CCn1[nH]c(=O)ccc1=O)=N\NC(=O)C(=O)NN" , what is its reported GI50?
> 100 µM (inactive)

Name the reported GI50 value associated with the compound O=c1cc(CO)oc2c3c(cc(O)c12)OCC(COC1OC(CO)C(O)C(O)C1O)=CC3 (stereo not given)
> 100 µM (inactive)

Value lookup for GI50; key = "Cc1cc(-c2ccc(C(=O)C(Cl)(Cl)Cl)[nH]2)on1"
31.4 µM (inactive)

# GI50 lookup, item "CC(=O)c1ccc2c3c1[C@H]1O[C@H]1c1cccc(c1-3)[C@@H]1O[C@H]21"
1.79 µM (inactive)

What does the data say about its GI50? Entry: "NC(=O)C1=NNc2ccccc2C(=O)N1c1ccccc1"
> 100 µM (inactive)

What value of GI50 has been reported for the following compound? C=C1C(O)C[C@H](OC(C)=O)[C@]2(C)C1C(OC(C)=O)[C@]1(C(C)(C)O)CC(O)C(C)=C1[C@@H](OC(=O)c1ccccc1)C2OC(C)=O (stereo not given in full)
> 10 µM (inactive)

Can you look up the measured GI50 of "Clc1ccc(C(n2cc(Br)cn2)n2cc(Br)cn2)cc1" for me?
17.8 µM (inactive)

Can you share its GI50? I mean this compound: COC(=O)C(/C(=N/N)C(=O)Nc1cccc(O)c1)c1nc2ccccc2nc1O (stereo not given)
> 100 µM (inactive)

Fill blank: measured GI50 of the compound C=C(N=[N+]=[N-])c1cn(C2CC(O)C(CO)O2)c(=O)[nH]c1=O (stereo not given) is ____.
> 100 µM (inactive)

Could you tell me which GI50 is on file for "COc1ccc(C(SCCO)(c2ccccc2)c2ccccc2)cc1" ?
17.1 µM (inactive)

// GI50 lookup, key: "COc1cc(Cl)c2c3c(c(C(=O)c4ccccc4)oc13)CCC2"
> 100 µM (inactive)

Which GI50 is listed for "C=CCN(c1cc(O)c2c(c(C)cn2S(=O)(=O)c2ccccc2)c1[N+](=O)[O-])S(C)(=O)=O" ?
> 100 µM (inactive)

Look up GI50: "O=C1C(c2c(O)[nH]c3ccc(Br)cc23)=Nc2ccccc21"
29 µM (inactive)

Consider the compound shown here: OCCCCCCCCCCCOc1ccc(C2OCC3(CC=CCC3)CO2)cc1 (stereo not given) What is its recorded GI50?
16.9 µM (inactive)

* * *

System: SF-295
Test method notes: NCI tumour cell line growth inhibition, 48 h
Active and inactive are the calls of the source. Rule as the data show it: active = GI50 up to about 1.1 µM and inactive = higher.
Classes to choose from: active, inactive

Would you mind telling me which call this test gave "Cc1cc2c(cn1)C(=O)OCC2" ?
inactive

Which outcome did this test record for the compound "COC(=O)[C@H](Cc1ccccc1)NC(=O)N(CCN(CCC#N)C(=O)N[C@H](C(=O)OC)C(C)C)c1ccccc1" ?
inactive

Hi team, can someone confirm the assay call for "COc1ccc(Nc2nc3c([nH]2)c(=O)n(C)c(=O)n3C)cc1" ?
inactive

Dear colleague, could you share the recorded outcome for "COc1cc(OC)cc(C(=O)CC(=O)c2cc(OC)cc(OC)c2)c1" when you have a moment?
inactive

// param item: CC(CCc1ccc2c(c1)c(N)c1ccc(N)cc1[n+]2[O-])CC(C)(C)C (stereo not given) ; yields the recorded call
inactive

Could you please tell me the result logged for "O=C(O)c1ccc(C=C2Sc3ccccc3S2)cc1" in this assay?
inactive

Short answer needed: outcome of this test for COc1cc(/C=C2\C(=O)N(c3ccccc3Cl)C(c3ccccc3)S2(=O)=O)cc(OC)c1OC (stereo not given) ?
inactive

Look up the recorded call for "O=C1/C(=C/c2ccccc2)CN(C(=O)CCN2CCCC2)C/C1=C\c1ccccc1" in this test.
active

Tell me the assay call for "N#Cc1c(-c2ccccc2)c(/C=N/c2ccc(F)cc2)c(=O)n2c1[nH]c1ccccc12" please.
inactive

Write down the call the test reported for this compound. Item: "Fc1cc(F)c(F)c(S)c1F"
inactive

Returns: the outcome recorded for "Cc1cc(-c2nc3c(O)cccc3s2)ccc1N" in this assay.
inactive

For "CN(C)NC(=O)NC12CC3CC(CC(C3)C1)C2" , what call appears in the results of this test?
inactive

Outcome? "O=C(O)c1ccc(C(=O)c2ccccc2)c(C(=O)O)c1"
inactive

What is the recorded call for this compound in the test? "CC(=O)c1ccc2c3c1[C@H]1O[C@H]1c1cccc(c1-3)[C@@H]1O[C@H]21"
inactive

Which outcome was entered for the compound "CC(C)=C[C@@H]1O[C@H](O)[C@@H]([C@H]2CC[C@@]3(C)[C@@H]4CC[C@H]5C(C)(C)C(=O)CC[C@@]56C[C@@]46CC[C@]23C)[C@@H]1O" in this test?
inactive

What classification did CCOC(=O)C1CCCCN1CCc1c[nH]c2ccccc12 (stereo not given) end up with in this test?
inactive

Test call, this compound: C=C(N=[N+]=[N-])c1cn(C2CC(O)C(CO)O2)c(=O)[nH]c1=O (stereo not given)
inactive

I would be grateful if you could indicate the recorded call for "O=[N+]([O-])c1ccc(COc2cccc3cccnc23)cc1" .
inactive

Which outcome was assigned to COc1ccc(N2C(N)=C(C#N)C(C#N)(C#N)C2c2cccc([N+](=O)[O-])c2)cc1 (stereo not given) in this test?
inactive

For C=C(C)C(CC=C(C)C)CC12CC(CC=C(C)C)C(C)(C)C(CC=C(C)C)(C(=O)C(Cc3ccc(O)c(O)c3)=C1O)C2=O (stereo not given) , which call appears in the assay record?
inactive

Could you check what this test reported for "NS(=O)(=O)c1ccc(/C=C/c2ccc(F)cc2)cc1" ?
inactive

Lab log entry: CSC1=NN(C(C)=O)C(C(OC(C)=O)C(OC(C)=O)C(OC(C)=O)C(COC(C)=O)OC(C)=O)S1 (stereo not given) — outcome as called in the assay?
inactive

Recorded test call requested for "N[C@H](Cc1ccc2oc3cc(=O)c4ccccc4c-3nc2c1)C(=O)O"
inactive

What outcome does the record of this test show for "Clc1ccc2oc(CCC3CCCCC3)nc2c1" ?
inactive

Which outcome did this test record for the compound CC1(C)c2ccccc2N2C(c3ccccc3)=NOC21C (stereo not given) ?
inactive

What classification did "CC(=O)Oc1cc2c(n(C)c1=O)-c1ccccc1C2" end up with in this test?
inactive

I'd appreciate the recorded outcome for "C=CC(=O)NCCC(=O)OCn1cc(F)c(=O)[nH]c1=O" from this test.
inactive

How was O=C(CCCC(=O)N1CC(CCl)c2ccc([N+](=O)[O-])cc21)N1CC(CCl)c2ccc([N+](=O)[O-])cc21 (stereo not given) classified in this test?
inactive

Call for entry "O=C1NCC2(CCN(CCCC3(c4ccc(F)cc4)OCCO3)CC2)N1c1ccccc1" :
inactive

Hello, I am checking results. What call was entered for CC1(C)C2CCC(CN)(C2)C1N (stereo not given) ?
inactive

What did this assay record as the result for "O=C(N/N=C(COc1ccc(Cl)cc1)\N=C\c1ccncc1)c1ccncc1" ?
inactive

Tell me the recorded outcome of this test for "Clc1ccc(/N=C2\c3ccccc3CN2c2ccc(Cl)cc2)cc1" .
inactive

What outcome does the record of this test show for "NCCC1([N+](=O)[O-])CCNCC1" ?
inactive

Please indicate how the test categorized "O=C(c1c(F)c(F)c(F)c(F)c1F)n1c(O)nc2ccccc21" .
inactive

Field: outcome | Entry: Nc1ncnc2c1ncn2C1CCC(CO)O1 (stereo not given)
inactive
